These measurements were taken from ChEMBL document CHEMBL1125408.

Form: system (UniProt P06276), quantity (pIC50), values below.
Sequence (P06276 whole entry): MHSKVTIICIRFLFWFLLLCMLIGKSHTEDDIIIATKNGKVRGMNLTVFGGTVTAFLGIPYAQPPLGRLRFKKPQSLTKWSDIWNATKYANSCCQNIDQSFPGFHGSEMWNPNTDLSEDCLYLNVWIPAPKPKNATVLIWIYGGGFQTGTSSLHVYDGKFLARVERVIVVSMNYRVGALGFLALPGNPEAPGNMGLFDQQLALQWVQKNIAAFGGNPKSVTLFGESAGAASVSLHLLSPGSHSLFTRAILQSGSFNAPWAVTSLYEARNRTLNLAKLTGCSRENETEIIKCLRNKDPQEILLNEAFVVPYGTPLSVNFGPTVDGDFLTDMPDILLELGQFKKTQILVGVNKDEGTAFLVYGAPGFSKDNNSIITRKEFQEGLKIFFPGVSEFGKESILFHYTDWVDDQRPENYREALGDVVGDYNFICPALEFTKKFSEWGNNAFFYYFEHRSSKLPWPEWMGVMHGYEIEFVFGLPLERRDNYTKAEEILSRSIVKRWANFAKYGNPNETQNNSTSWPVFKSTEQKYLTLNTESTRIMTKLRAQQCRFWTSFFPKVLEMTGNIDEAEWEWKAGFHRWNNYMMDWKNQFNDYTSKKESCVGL
Lab note — pIC50 values are minus log10 of concentrations in M.

Reference set (3 entries):
CN(C)Cc1ccc(CSCCNC(=NC#N)NCCSCc2ccc(CN(C)C)o2)o1: 5.62
CN(C)Cc1ccc(CSCc2ccc(-c3ccc(CSCc4ccc(CN(C)C)o4)cc3)cc2)o1: 5.89
CN(C)Cc1ccc(CSCCCCSCc2ccc(CN(C)C)o2)o1: 5.51

Look up and report measured pIC50 (UniProt P06276) for the following compound: CN(C)Cc1ccc(CSCCCCCSCc2ccc(CN(C)C)o2)o1
5.44

Look up and report measured pIC50 (UniProt P06276) for the following compound: CN(C)Cc1ccc(CSCCCCCCSCc2ccc(CN(C)C)o2)o1
5.54

Look up and report measured pIC50 (UniProt P06276) for the following compound: CN(C)Cc1ccc(CSCCCSCc2ccc(CN(C)C)o2)o1
5.39

Look up and report measured pIC50 (UniProt P06276) for the following compound: CN(C)Cc1ccc(CSCc2ccc(CSCc3ccc(CN(C)C)o3)cc2)o1
5.57

Look up and report measured pIC50 (UniProt P06276) for the following compound: CN(C)Cc1ccc(CSCCSCc2ccc(CN(C)C)o2)o1
5.37
